Run Description: Plasma PK of Formula Ia and metabolites after inhalation in African Green Monkeys
Test Parameters: both, monkey, in vivo, 0.168 mg/kg
Measured Parameter: concentration at 2 h (nM)
Form entry: value (nM) — number only.

Asked: Reported concentration at 2 h for `N#C[C@@]1(c2ccc3c(N)ncnn23)O[C@H](CO)[C@@H](O)[C@H]1O` : what is it?
Given back: 25

---

Format: physicochemical
Test Parameters: pH 2.0; Ambient; 2 h
Listed below: % assay/degs, difference from T = 0 values for each entry.
Please state the value followed by its unit.

* N#C[C@@]1(c2ccc3c(N)ncnn23)O[C@H](COP(=O)(O)Oc2ccccc2)[C@@H](O)[C@H]1O | 0.05%
* CCC(CC)COC(=O)[C@H](C)N[P@](=O)(OC[C@H]1O[C@@](C(N)=O)(c2ccc3c(N)ncnn23)[C@H](O)[C@@H]1O)Oc1ccccc1 | 0.00%
* N#C[C@@]1(c2ccc3c(N)ncnn23)O[C@H](CO)[C@@H](O)[C@H]1O | 0.00%

# ---- query compound ----
Asked: Reported % assay/degs, difference from T = 0 for `CCC(CC)COC(=O)[C@H](C)N[P@](=O)(OC[C@H]1O[C@@](C#N)(c2ccc3c(N)ncnn23)[C@H](O)[C@@H]1O)Oc1ccccc1` : what is it?
Given back: −0.2%
